Origin of values: ChEMBL document CHEMBL1147482

Each entry below lists one item and its recorded pIC50 value.
# TESTED TARGET: Mitogen-activated protein kinase 14 (Homo sapiens, UniProt Q16539)
# Sequence (Q16539 whole entry): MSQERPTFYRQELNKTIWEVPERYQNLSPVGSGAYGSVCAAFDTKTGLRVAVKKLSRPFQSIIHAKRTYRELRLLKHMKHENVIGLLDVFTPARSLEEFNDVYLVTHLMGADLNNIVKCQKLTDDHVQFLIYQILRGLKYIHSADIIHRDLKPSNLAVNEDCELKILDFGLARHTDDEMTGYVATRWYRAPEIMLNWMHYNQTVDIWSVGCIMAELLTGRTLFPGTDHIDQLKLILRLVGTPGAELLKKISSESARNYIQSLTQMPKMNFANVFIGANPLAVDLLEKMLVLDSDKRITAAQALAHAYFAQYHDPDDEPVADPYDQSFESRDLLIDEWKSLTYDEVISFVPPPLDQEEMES
# ASSAY TEXT: Inhibitory activity against Mitogen-activated protein kinase p38
Entry type: numeric. Quantity: pIC50, the -log10 of concentration in molar units.

// worked examples, pIC50 included
* COc1ccc(-c2c(-c3cccc(C)n3)nn3c2CCC3)cc1 | 5.34
* c1ccc(-c2nn3c(c2-c2ccnc4ccccc24)CCC3)nc1 | 5.10
* Fc1ccc(-c2nn3c(c2-c2ccnc4ccccc24)CCC3)nc1 | 4.96
* Clc1ccc2c(-c3c(-c4ccccn4)nn4c3CCC4)ccnc2c1 | 5.74
* CCOc1ccc2c(-c3c(-c4cccc(C)n4)nn4c3CCC4)ccnc2c1 | 7.23
* Cc1cccc(-c2nn3c(c2-c2ccnc4cc(Cl)ccc24)CCC3)n1 | 6.36
* CCSc1ccc2c(-c3c(-c4ccccn4)nn4c3CCC4)ccnc2c1 | 5.80
* CCS(=O)(=O)c1ccc2c(-c3c(-c4ccccn4)nn4c3CCC4)ccnc2c1 | 5.01

Asked: Looking for the measured pIC50 of Cc1cccc(-c2nn3c(c2-c2ccnc4ccccc24)CCC3)n1 , can you help?
Given back: 6.17
